Value source: PubChem BioAssay AID1963826

Tested on: 926638-142-R-J1-PDC complex spheroid viability
Protocol Details: Anticancer human tumor 926638-142-R-J1-PDC patient-derived endometrial carcinoma cell line growth inhibition [POLQ]
Recorded Conditions: curve of first compound; second compound 10 µM
IC50 by entry:
State just the number; it will be interpreted in nM.

Worked set:
Compound: COc1cccc(OCCCN)c1-c1cc(Nc2cnc(C#N)cn2)n[nH]1 + COC1C(OC(N)=O)C(O)C(Oc2ccc3c(O)c(NC(=O)c4ccc(O)c(CC=C(C)C)c4)c(=O)oc3c2C)OC1(C)C
IC50, nM: 77.7
--
Compound: C=CCn1c(=O)c2cnc(Nc3ccc(N4CCN(C)CC4)cc3)nc2n1-c1cccc(C(C)(C)O)n1 + Cc1cccc(N(C)C(=O)C2C(O)CCN2c2nc(C)cc(C(F)(F)F)c2C#N)c1
IC50, nM: 276
--
Compound: CC1COCCN1c1cc(-c2ccnn2C)c2ccnc(-c3ccn[nH]3)c2n1 (stereo not given) + Cc1cccc(N(C)C(=O)C2C(O)CCN2c2nc(C)cc(C(F)(F)F)c2C#N)c1
IC50, nM: 313

GET /values?readout=IC50&item= CC1COCCN1c1cc(-c2ccnn2C)c2ccnc(-c3ccn[nH]3)c2n1 (stereo not given) + Nc1ccc(C#CCN(C(=O)Cc2ncc(C(F)(F)F)cc2C(F)(F)F)c2ccc(F)cc2)nn1
369

GET /values?readout=IC50&item= CCc1cc2c(N3CCc4c(cc(Cn5ccnc5)cc4-c4cn(C)nc4C(F)(F)F)C3=O)cc(C)nc2c(OC)n1 + Cc1cccc(N(C)C(=O)C2C(O)CCN2c2nc(C)cc(C(F)(F)F)c2C#N)c1
257

---

Test system: 926638-142-R-J1-PDC complex spheroid viability
Protocol Details: Anticancer human tumor 926638-142-R-J1-PDC cell line growth inhibition [POLQ];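 note: spheroids exposed to drugs for one week before readout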;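 for viability, T/C: percent viability relative to DMSO vehicle control wells set as 100%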
Recorded Conditions: second compound 0.316 µM; first compound 0.00316 µM; stronger effect = lower value
Measurement Type: viability, T/C (%)
State just the number; it will be interpreted in %.

Worked set:
Compound: CCc1c2c(nc3ccc(O)cc13)-c1cc3c(c(=O)n1C2)COC(=O)[C@]3(O)CC + COC1C(OC(N)=O)C(O)C(Oc2ccc3c(O)c(NC(=O)c4ccc(O)c(CC=C(C)C)c4)c(=O)oc3c2C)OC1(C)C
System Name: 926638-142-R-J1-PDC complex spheroid viability
Data Value: 68.6
--
Compound: Cn1ncnc1[C@H]1c2n[nH]c(=O)c3cc(F)cc(c23)N[C@@H]1c1ccc(F)cc1 + COC1C(OC(N)=O)C(O)C(Oc2ccc3c(O)c(NC(=O)c4ccc(O)c(CC=C(C)C)c4)c(=O)oc3c2C)OC1(C)C
System Name: 926638-142-R-J1-PDC complex spheroid viability
Data Value: 72.7
--
Compound: CC[C@@]1(O)C(=O)OCc2c1cc1n(c2=O)Cc2cc3c(CN(C)C)c(O)ccc3nc2-1 + Nc1ccc(C#CCN(C(=O)Cc2ncc(C(F)(F)F)cc2C(F)(F)F)c2ccc(F)cc2)nn1
System Name: 926638-142-R-J1-PDC complex spheroid viability
Data Value: 86.2
--
Compound: C=CCn1c(=O)c2cnc(Nc3ccc(N4CCN(C)CC4)cc3)nc2n1-c1cccc(C(C)(C)O)n1 + Cc1cccc(N(C)C(=O)C2C(O)CCN2c2nc(C)cc(C(F)(F)F)c2C#N)c1
System Name: 926638-142-R-J1-PDC complex spheroid viability
Data Value: 102

Now for the compound whose viability, T/C we want.
Field: viability, T/C (926638-142-R-J1-PDC complex spheroid viability). Entry: COc1cccc(OCCCN)c1-c1cc(Nc2cnc(C#N)cn2)n[nH]1 + Nc1ccc(C#CCN(C(=O)Cc2ncc(C(F)(F)F)cc2C(F)(F)F)c2ccc(F)cc2)nn1
111

---

System: 926638-142-R-J1-PDC complex spheroid viability
Protocol Details: Anticancer human tumor 926638-142-R-J1-PDC cell line growth inhibition [POLQ];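 note: spheroids exposed to drugs for one week before readout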;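 for viability, T/C: percent viability relative to DMSO vehicle control wells set as 100%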
Recorded Conditions: second compound 1 µM; first compound 0.316 µM; stronger effect = lower value
Method: Multicellular complex tumor spheroid response to Polymerase (POL) inhibitors (novobiocin, ART-558, RP6685) in combination with a variety of drugs and investigational agents in selected tumor cell lines The POL inhibitors (novobiocin, ART-558, and RP6685) were evaluated both individually and in combination with standard of care and investigational anticancer small molecules within a complex spheroid model of solid tumors. . […]
Each record is given Y if its reported viability, T/C is strictly below 80%. Records at or above 80% are given N.

Illustrative cases are given below, each with its answer.
Compound: O=c1[nH]cc(F)c(=O)[nH]1 + Cc1cccc(N(C)C(=O)C2C(O)CCN2c2nc(C)cc(C(F)(F)F)c2C#N)c1
System Name: 926638-142-R-J1-PDC complex spheroid viability
Category Label: N
//
Compound: O=c1[nH]cc(F)c(=O)[nH]1 + Nc1ccc(C#CCN(C(=O)Cc2ncc(C(F)(F)F)cc2C(F)(F)F)c2ccc(F)cc2)nn1
System Name: 926638-142-R-J1-PDC complex spheroid viability
Category Label: N
//
Compound: CC1COCCN1c1cc(C2(S(C)(=N)=O)CC2)nc(-c2ccnc3[nH]ccc23)n1 (stereo unspecified) + Cc1cccc(N(C)C(=O)C2C(O)CCN2c2nc(C)cc(C(F)(F)F)c2C#N)c1
System Name: 926638-142-R-J1-PDC complex spheroid viability
Category Label: N
//
Compound: Nc1ccn(C2OC(CO)C(O)C2(F)F)c(=O)n1 (stereo unspecified) + Cc1cccc(N(C)C(=O)C2C(O)CCN2c2nc(C)cc(C(F)(F)F)c2C#N)c1
System Name: 926638-142-R-J1-PDC complex spheroid viability
Category Label: Y
//
Compound: O=C(c1cc(Cc2n[nH]c(=O)c3ccccc23)ccc1F)N1CCN(C(=O)C2CC2)CC1 + Nc1ccc(C#CCN(C(=O)Cc2ncc(C(F)(F)F)cc2C(F)(F)F)c2ccc(F)cc2)nn1
System Name: 926638-142-R-J1-PDC complex spheroid viability
Category Label: N
//
Compound: CNCc1ccc(-c2[nH]c3cc(F)cc4c3c2CCNC4=O)cc1 + COC1C(OC(N)=O)C(O)C(Oc2ccc3c(O)c(NC(=O)c4ccc(O)c(CC=C(C)C)c4)c(=O)oc3c2C)OC1(C)C
System Name: 926638-142-R-J1-PDC complex spheroid viability
Category Label: Y

Please state whether viability, T/C is below 80% for COc1ccc([C@@H](O)c2cc(-c3ncnc4cc(N5CCOCC5)ccc34)c(F)cc2Cl)nn1 + Nc1ccc(C#CCN(C(=O)Cc2ncc(C(F)(F)F)cc2C(F)(F)F)c2ccc(F)cc2)nn1
Y

Please state whether viability, T/C is below 80% for CCc1cc2c(N3CCc4c(cc(Cn5ccnc5)cc4-c4cn(C)nc4C(F)(F)F)C3=O)ccnc2c(OC)n1 + COC1C(OC(N)=O)C(O)C(Oc2ccc3c(O)c(NC(=O)c4ccc(O)c(CC=C(C)C)c4)c(=O)oc3c2C)OC1(C)C
Y

Please state whether viability, T/C is below 80% for CCc1cc2c(N3CCc4c(cc(Cn5ccnc5)cc4-c4cn(C)nc4C(F)(F)F)C3=O)cc(C)nc2c(OC)n1 + Cc1cccc(N(C)C(=O)C2C(O)CCN2c2nc(C)cc(C(F)(F)F)c2C#N)c1
Y

Please state whether viability, T/C is below 80% for C=CC(=O)N1CCN(c2nc(=O)n(-c3c(C)ccnc3C(C)C)c3nc(-c4c(O)cccc4F)c(F)cc23)C(C)C1 (stereo unspecified) + Nc1ccc(C#CCN(C(=O)Cc2ncc(C(F)(F)F)cc2C(F)(F)F)c2ccc(F)cc2)nn1
N

Please state whether viability, T/C is below 80% for COc1ccc([C@@H](O)c2cc(-c3ncnc4cc(N5CCOCC5)ccc34)c(F)cc2Cl)nn1 + Cc1cccc(N(C)C(=O)C2C(O)CCN2c2nc(C)cc(C(F)(F)F)c2C#N)c1
Y

---

System: 926638-142-R-J1-PDC complex spheroid viability
Protocol Details: Anticancer human tumor 926638-142-R-J1-PDC cell line growth inhibition [POLQ];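 note: spheroids exposed to drugs for one week before readout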;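 for viability, T/C: percent viability relative to DMSO vehicle control wells set as 100%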
Recorded Conditions: second compound 0.0316 µM; first compound 0.00316 µM; stronger effect = lower value
Measurement Type: viability, T/C (%)
State just the number; it will be interpreted in %.

Compound: CC[C@@]1(O)C(=O)OCc2c1cc1n(c2=O)Cc2cc3c(CN(C)C)c(O)ccc3nc2-1 + Nc1ccc(C#CCN(C(=O)Cc2ncc(C(F)(F)F)cc2C(F)(F)F)c2ccc(F)cc2)nn1
System Name: 926638-142-R-J1-PDC complex spheroid viability
viability, T/C [%]: 84
//
Compound: Cn1ncnc1[C@H]1c2n[nH]c(=O)c3cc(F)cc(c23)N[C@@H]1c1ccc(F)cc1 + Nc1ccc(C#CCN(C(=O)Cc2ncc(C(F)(F)F)cc2C(F)(F)F)c2ccc(F)cc2)nn1
System Name: 926638-142-R-J1-PDC complex spheroid viability
viability, T/C [%]: 99.6
//
Compound: C=CCn1c(=O)c2cnc(Nc3ccc(N4CCN(C)CC4)cc3)nc2n1-c1cccc(C(C)(C)O)n1 + Cc1cccc(N(C)C(=O)C2C(O)CCN2c2nc(C)cc(C(F)(F)F)c2C#N)c1
System Name: 926638-142-R-J1-PDC complex spheroid viability
viability, T/C [%]: 92

GET /values?readout=viability, T/C&item= CCc1c2c(nc3ccc(O)cc13)-c1cc3c(c(=O)n1C2)COC(=O)[C@]3(O)CC + Nc1ccc(C#CCN(C(=O)Cc2ncc(C(F)(F)F)cc2C(F)(F)F)c2ccc(F)cc2)nn1
54.4

GET /values?readout=viability, T/C&item= Cn1ncnc1[C@H]1c2n[nH]c(=O)c3cc(F)cc(c23)N[C@@H]1c1ccc(F)cc1 + Cc1cccc(N(C)C(=O)C2C(O)CCN2c2nc(C)cc(C(F)(F)F)c2C#N)c1
86.1
